assay: yeast display, Sf9 membrane polyspecificity reagent, FACS + sequencing; frameworks hold sequencing errors
recorded endpoint: polyreactivity (PSR sort gate)

Guide cases for polyreactivity (PSR sort gate), answers given:
QVQLVESGGGLVQAGGSLRLSCAASGSIFWGNAMGWYRQAPGKERELVAAIRRGTSTYYADSVKGRFTISRDNAKNTVYLQMNSLKPEDTAVYYCAAEGWTTPTPTSDDNQWWYDYWGQGTQVTVSS: high polyreactivity
QVQLVESGGGLVQAGGSLRLSCAASGSIFVDNDMGWYRPAPGKERELVAAIRSSGTSTYYADSVKGRFTISRDNAKNTVYLQMNSLKPEDTAVYYCATRYPRRHVYPKPYYYWGQGTQVTVSS: low polyreactivity
QVQLVESGGGLVQAGGSLRLSCAASGYTFTGYAMGWYRQAPGKERELVAAITSIGGSTYYADSVKGRFTISRDNAKTTVYLQMNSLKPEDTAVYYCAKDALVIDGGGGYDYWGQGTQVTVSS: low polyreactivity
QVQLVESGGGLVQAGGSLRLSCAATGSNFINYAMGWYRQAPGKERELVAAYADSVKGRFTISRDNAKNTVYLQMNSLKPEDTAVYYCNAVTGEWGQGTQVTVSS: low polyreactivity
QVQLVESGGGLVQAGGSLRLSCAASGFTFVGYAIGWYRQAPGKERDMVAAITRRGGSTYYADSVKGRFTISRDNAKNTVYLQMNSLKPEDTAVYYCNKSSYRISVPRYDYWGQGTQVTVSS: high polyreactivity

Entry under review: QVQLVESGGGLVQAGGSLRLSCAASGRIFTKYAMGWYRQAPGKERELVAGISSSGGSTYYADSVKGRFTISRDIAKNTVYLQMNSLKPEDTAVYYCAARGYYKYDYWGQGTQVTVSS . Reported polyreactivity (PSR sort gate)?
high polyreactivity

Entry under review: EVQLVESGGGLDQAGGSLRLICAASARTFIWNAMGWYRQEPGKERDLVAAITRNGDSTYYADSVKGRFTISRDNAKNTVYLQMNRLKPEDTAVYYCAAYSRVFVYRTVGNYGWMNYWGQGTQVTVSS . Reported polyreactivity (PSR sort gate)?
high polyreactivity

Entry under review: QVQLVESGGGIVQAGGSLRLSCAASGRNFDVYAMGWYRQAAGKERELVATISSSGVSTSYADSVKGRFTISRDNAKNTVYLQMNSLKPEDSAVYYCARKFLWKGFDYWGQGTQVTVSS . Reported polyreactivity (PSR sort gate)?
low polyreactivity

Entry under review: QVQLVESGGGLVQAGGSLRLSCAASGSIFFYYAMGWYRQAPGKERELVAAINSDGSTNYADSVKGRFTISRDNAKNTVYLQMNSLKPEDTAVYYCAAYDEYYGYDYWGQGTQVTVSS . Reported polyreactivity (PSR sort gate)?
low polyreactivity

Entry under review: QGQLVESGGGLVQAGGSLRLSCAASGSTFPPYRMGWYRQAPGKERELVAAITWRGGRTYYADSVKGRFTISRDNAKNTVYLQMNSLKREDTAVYYCAADYPYQYGRYAGSPGAGRYYWGQGTQVTVSS . Reported polyreactivity (PSR sort gate)?
high polyreactivity

Entry under review: QVQLVESGGGLVKAGGSLRLSCAASGSTFEYDMGWYRPAPGKERELVAAITWTDGGTYYADSVNGRCTISRDNAKNTVYFQMNSLKPEDTAVYYCNAEGWFADFDSGFYAFDYWGQGTQVTVSS . Reported polyreactivity (PSR sort gate)?
low polyreactivity
